Values were extracted from ChEMBL document CHEMBL5316283.

# protocolDescription: Half life in mouse at 3 mg/kg, po
# Assay type: ADME, organism-based
# particulars: in vivo
experimentalReadout: half-life (h)
# number only, unit h dropped from output

Req: Name the recorded half-life of the compound listed here: CCNC(=O)c1ccc2c(c1)nc(C(F)F)n2[C@H]1CCN(CC2(O)CCCCC2)C[C@@H]1C
Resp: 4.9

----------
# protocolDescription: Volume of distribution at steady state in rat at 1 mg/kg, iv
# Assay type: ADME, organism-based
# particulars: in vivo, read-out: Vdss
experimentalReadout: Vd (L/kg)
# number only, unit L/kg dropped from output

Req: Name the recorded Vd of the compound listed here: CCNC(=O)c1ccc2c(c1)nc(C(F)F)n2[C@H]1CCN(CC2(O)CCCCC2)C[C@@H]1C
Resp: 2.6

----------
# protocolDescription: Cytotoxicity against human THLE cells assessed as inhibition of cell growth by CellTiter-Glo assay
# Type: toxicity, cell-based
experimentalReadout: IC50

Here's what some known entries look like.
{"compound": "COC1(CN2CC[C@H](c3c(C)nn4cc(C(=O)NCC5CC5)ccc34)[C@@H](C)C2)CCOCC1", "experimentalReadout": "IC50", "measurement": "> 300 µM"}
{"compound": "CCNC(=O)c1ccc2c(c1)nc(C(F)F)n2[C@H]1CCN(CC2(O)CCCCC2)C[C@@H]1C", "experimentalReadout": "IC50", "measurement": "> 300 µM"}

Req: Name the recorded IC50 of the compound listed here: CCNC(=O)c1ccc2c(C3CCN(CC4(O)CCCCC4)CC3)c(-c3cccn(C)c3=O)nn2c1
Resp: > 300 µM

Req: Name the recorded IC50 of the compound listed here: CCNC(=O)c1ccc2c(c1)[nH]c(=O)n2C1CCN(CC2(O)CCCCC2)CC1
Resp: > 300 µM

Req: Name the recorded IC50 of the compound listed here: CCNC(=O)c1ccc2c(c1)nc(-c1cccn(C)c1=O)n2[C@H]1CCN(CC2(O)CCCCC2)C[C@@H]1C
Resp: > 300 µM

Req: Name the recorded IC50 of the compound listed here: CCNC(=O)c1ccc2c(c1)nc(C)n2C1CCN(CC2(O)CCCCC2)CC1
Resp: > 300 µM

Req: Name the recorded IC50 of the compound listed here: CCNC(=O)c1ccc2c(c1)nc(C)n2[C@H]1CCN(CC2(O)CCCCC2)C[C@@H]1C
Resp: > 300 µM

Req: Name the recorded IC50 of the compound listed here: CCNC(=O)c1ccc2c(C3CCN(CC4(O)C5CC6CC(C5)CC4C6)CC3)c(C)nn2c1 (configuration not stated)
Resp: 123 µM

Req: Name the recorded IC50 of the compound listed here: Cc1nn2cc(C(=O)NCC3CC3)ccc2c1[C@H]1CCN(CC2(O)CCOCC2)C[C@@H]1C
Resp: 269 µM

Req: Name the recorded IC50 of the compound listed here: CCNC(=O)c1ccc2c([C@H]3CCN(CC4(O)CCCCC4)C[C@@H]3C)c(C)nn2c1
Resp: > 300 µM

Req: Name the recorded IC50 of the compound listed here: CCNC(=O)c1ccc2c([C@H]3CCN(CC4(O)CCOCC4)C[C@@H]3C)c(C)nn2c1
Resp: > 300 µM

Req: Name the recorded IC50 of the compound listed here: CCNC(=O)c1ccc2c(C3CCN(CC4(O)CCCCC4)CC3)c(C)nn2c1
Resp: > 300 µM

----------
# protocolDescription: Apparent permeability in dog RRCK cells
# Format: ADME, cell-based, Canis lupus familiaris, MDCKII-LE
# particulars: MDCK
# Papp listing for each entry below
# number only, unit ×10⁻⁶ cm/s dropped from output

Here's what some known entries look like.
{"compound": "CCNC(=O)c1ccc2c(C3CCN(CC4(O)CCCCC4)CC3)c(-c3cccn(C)c3=O)nn2c1", "experimentalReadout": "Papp", "measurement": 0.006}
{"compound": "Cc1nn2cc(C(=O)NCC3CC3)ccc2c1[C@H]1CCN(CC2(O)CCOCC2)C[C@@H]1C", "experimentalReadout": "Papp", "measurement": 0.154}
{"compound": "CCNC(=O)c1ccc2c(c1)nc(C(F)F)n2[C@H]1CCN(CC2(O)CCCCC2)C[C@@H]1C", "experimentalReadout": "Papp", "measurement": 0.271}

Req: Name the recorded Papp of the compound listed here: CCNC(=O)c1ccc2c([C@H]3CCN(CC4(O)CCOCC4)C[C@@H]3C)c(C)nn2c1
Resp: 0.093

Req: Name the recorded Papp of the compound listed here: CCNC(=O)c1ccc2c(C3CCN(CC4(O)C5CC6CC(C5)CC4C6)CC3)c(C)nn2c1 (configuration not stated)
Resp: 0.331

Req: Name the recorded Papp of the compound listed here: CCNC(=O)c1ccc2c(c1)nc(C)n2[C@H]1CCN(CC2(O)CCCCC2)C[C@@H]1C
Resp: 0.119

Req: Name the recorded Papp of the compound listed here: CCNC(=O)c1ccc2c(c1)nc(-c1cccn(C)c1=O)n2[C@H]1CCN(CC2(O)CCCCC2)C[C@@H]1C
Resp: 0.004

Req: Name the recorded Papp of the compound listed here: CCNC(=O)c1ccc2c(C3CCN(CC4(O)CCCCC4)CC3)c(C)nn2c1
Resp: 0.246

Req: Name the recorded Papp of the compound listed here: CCNC(=O)c1ccc2c([C@H]3CCN(CC4(O)CCCCC4)C[C@@H]3C)c(C)nn2c1
Resp: 0.26

Req: Name the recorded Papp of the compound listed here: CCNC(=O)c1ccc2c(c1)[nH]c(=O)n2C1CCN(CC2(O)CCCCC2)CC1
Resp: 0.021

Req: Name the recorded Papp of the compound listed here: CCNC(=O)c1ccc2c(c1)nc(C)n2C1CCN(CC2(O)CCCCC2)CC1
Resp: 0.108

Req: Name the recorded Papp of the compound listed here: COC1(CN2CC[C@H](c3c(C)nn4cc(C(=O)NCC5CC5)ccc34)[C@@H](C)C2)CCOCC1
Resp: 0.248

----------
# protocolDescription: Lipophilicity, logD of the compound by shake flask method
# Format: physicochemical
# particulars: octanol/water
experimentalReadout: logD
Could you keep your reply to the number by itself?

{"compound": "CCNC(=O)c1ccc2c(C3CCN(CC4(O)CCCCC4)CC3)c(-c3cccn(C)c3=O)nn2c1", "logD": 0.09}
{"compound": "CCNC(=O)c1ccc2c([C@H]3CCN(CC4(O)CCCCC4)C[C@@H]3C)c(C)nn2c1", "logD": 2.5}
{"compound": "CCNC(=O)c1ccc2c(c1)nc(-c1cccn(C)c1=O)n2[C@H]1CCN(CC2(O)CCCCC2)C[C@@H]1C", "logD": 1.7}

Req: Name the recorded logD of the compound listed here: Cc1nn2cc(C(=O)NCC3CC3)ccc2c1[C@H]1CCN(CC2(O)CCOCC2)C[C@@H]1C
Resp: 2

Req: Name the recorded logD of the compound listed here: CCNC(=O)c1ccc2c(C3CCN(CC4(O)CCCCC4)CC3)c(C)nn2c1
Resp: 2

Req: Name the recorded logD of the compound listed here: COC1(CN2CC[C@H](c3c(C)nn4cc(C(=O)NCC5CC5)ccc34)[C@@H](C)C2)CCOCC1
Resp: 2.8

----------
# Ratio Ki listing for each entry below
# Organism: Homo sapiens
# protocolDescription: Selectivity ratio of Ki for human recombinant YEATS2 to Ki for human recombinant YEATS4
Could you keep your reply to the number by itself?

{"compound": "CCNC(=O)c1ccc2c(c1)[nH]c(=O)n2C1CCN(CC2(O)CCCCC2)CC1", "Ratio Ki": 14}

Req: Name the recorded Ratio Ki of the compound listed here: COC1(CN2CC[C@H](c3c(C)nn4cc(C(=O)NCC5CC5)ccc34)[C@@H](C)C2)CCOCC1
Resp: 49

Req: Name the recorded Ratio Ki of the compound listed here: CCNC(=O)c1ccc2c(C3CCN(CC4(O)CCCCC4)CC3)c(-c3cccn(C)c3=O)nn2c1
Resp: 4

Req: Name the recorded Ratio Ki of the compound listed here: CCNC(=O)c1ccc2c(C3CCN(CC4(O)C5CC6CC(C5)CC4C6)CC3)c(C)nn2c1 (centres undefined)
Resp: 7

Req: Name the recorded Ratio Ki of the compound listed here: CCNC(=O)c1ccc2c(C3CCN(CC4(O)CCCCC4)CC3)c(C)nn2c1
Resp: 16

Req: Name the recorded Ratio Ki of the compound listed here: CCNC(=O)c1ccc2c(c1)nc(C(F)F)n2[C@H]1CCN(CC2(O)CCCCC2)C[C@@H]1C
Resp: 17

Req: Name the recorded Ratio Ki of the compound listed here: CCNC(=O)c1ccc2c([C@H]3CCN(CC4(O)CCCCC4)C[C@@H]3C)c(C)nn2c1
Resp: 10

Req: Name the recorded Ratio Ki of the compound listed here: CCNC(=O)c1ccc2c(c1)nc(-c1cccn(C)c1=O)n2[C@H]1CCN(CC2(O)CCCCC2)C[C@@H]1C
Resp: 2

Req: Name the recorded Ratio Ki of the compound listed here: Cc1nn2cc(C(=O)NCC3CC3)ccc2c1[C@H]1CCN(CC2(O)CCOCC2)C[C@@H]1C
Resp: 16
